systemName: Abf1 (UniProt P14164)
Sequence: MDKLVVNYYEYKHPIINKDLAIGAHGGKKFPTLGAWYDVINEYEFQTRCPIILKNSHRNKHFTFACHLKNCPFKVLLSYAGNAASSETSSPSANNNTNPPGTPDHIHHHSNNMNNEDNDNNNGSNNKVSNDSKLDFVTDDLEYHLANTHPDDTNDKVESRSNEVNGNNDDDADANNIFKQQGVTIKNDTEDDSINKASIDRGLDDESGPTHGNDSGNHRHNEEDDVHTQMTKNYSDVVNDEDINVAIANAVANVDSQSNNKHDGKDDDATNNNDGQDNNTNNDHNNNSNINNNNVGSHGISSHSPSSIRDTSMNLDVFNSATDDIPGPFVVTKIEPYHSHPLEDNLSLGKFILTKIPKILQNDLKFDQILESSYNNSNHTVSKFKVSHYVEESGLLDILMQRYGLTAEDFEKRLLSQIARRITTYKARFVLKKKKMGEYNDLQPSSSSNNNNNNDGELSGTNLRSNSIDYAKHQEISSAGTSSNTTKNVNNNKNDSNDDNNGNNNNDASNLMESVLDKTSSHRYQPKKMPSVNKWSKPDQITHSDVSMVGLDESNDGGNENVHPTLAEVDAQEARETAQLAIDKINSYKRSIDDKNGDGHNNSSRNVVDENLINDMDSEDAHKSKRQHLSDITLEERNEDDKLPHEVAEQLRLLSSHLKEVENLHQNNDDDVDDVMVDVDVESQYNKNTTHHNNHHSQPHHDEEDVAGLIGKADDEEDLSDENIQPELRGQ
testName: PBM E-score (8-mer binding enrichment) (E-score (-0.5 to 0.5)); higher = stronger / more preferred TF binding
conditionsUsed: protein concentration: 200 nM; construct: GST-full length
In all, about 33,000 sequences were measured (“E-score (-0.5 to 0.5)”: median about -0.015, highest 2% from about 0.3 on). The sample as a whole holds a higher share of the highest values than the screen did.
readoutKind: PBM E-score
Lab note: write the figure by itself, no unit.

Req: // lookup PBM E-score | system=Abf1 (UniProt P14164) | key= ATCATCAG
Resp: 0.16

Req: Could you share what PBM E-score was measured for CTATATCA , tested on Abf1 (UniProt P14164)?
Resp: 0.267

Req: GET /values?readout=PBM E-score&system=Abf1 (UniProt P14164)&item= ACTTCGTC
Resp: 0.227

Req: Notebook: pull reported PBM E-score for Abf1 (UniProt P14164), entry CTATATAC
Resp: 0.364

Req: What is its PBM E-score for Abf1 (UniProt P14164)? Entry: CCTGTCTC
Resp: -0.123

Req: Reported PBM E-score for Abf1 (UniProt P14164), given AAGAATGA ?
Resp: 0.293

Req: Under Abf1 (UniProt P14164): PBM E-score value of GAATGCCC ?
Resp: -0.0158

Req: Reported PBM E-score for Abf1 (UniProt P14164), given GTCATCAA ?
Resp: 0.31

Req: # returns recorded PBM E-score (system: Abf1 (UniProt P14164)) for CAAGATGC
Resp: 0.148

Req: Hi! What's the reported PBM E-score for ATATATCA on Abf1 (UniProt P14164)?
Resp: 0.311

Req: Checklist item: PBM E-score tested on Abf1 (UniProt P14164), entry ATCATCGA , value?
Resp: 0.175

Req: Lab note: need PBM E-score for AGCATCAT on Abf1 (UniProt P14164), anyone have it?
Resp: 0.0136

Req: For the record CGCGGCGC , what value of PBM E-score is listed for Abf1 (UniProt P14164)?
Resp: -0.00706

Req: What value of PBM E-score on Abf1 (UniProt P14164) does GTATATGA have?
Resp: 0.12

Req: Hi! What's the reported PBM E-score for AGACGGCT on Abf1 (UniProt P14164)?
Resp: -0.0258

Req: Identify the measured PBM E-score of CGTGGTTC for Abf1 (UniProt P14164).
Resp: 0.0193

Req: Form field - read-out: PBM E-score; system: Abf1 (UniProt P14164); submitted item: AAGGGACC
Resp: 0.0128

Req: Enter reported PBM E-score observed with Abf1 (UniProt P14164) for CTCTATAC
Resp: 0.116

Req: Give Abf1 (UniProt P14164) PBM E-score for ATGGGGAA
Resp: -0.104

Req: Recorded PBM E-score for ATCATCAT with Abf1 (UniProt P14164), please?
Resp: 0.376

Req: Observed PBM E-score on Abf1 (UniProt P14164) for ATATATCC , please.
Resp: 0.171

Req: Hi! What's the reported PBM E-score for ATACTGTA on Abf1 (UniProt P14164)?
Resp: 0.0204

Req: Could you share what PBM E-score was measured for GAATCCCA , tested on Abf1 (UniProt P14164)?
Resp: -0.00947

Req: Query PBM E-score on Abf1 (UniProt P14164) for CGTTGATC
Resp: 0.247

Req: What is its PBM E-score for Abf1 (UniProt P14164)? Entry: ACTTCGTA
Resp: 0.297

Req: # value lookup — system Abf1 (UniProt P14164), readout PBM E-score, item GGAGGTCA
Resp: 0.0571

Req: What is its PBM E-score for Abf1 (UniProt P14164)? Entry: AATTCCAC
Resp: 0.0539

Req: Give Abf1 (UniProt P14164) PBM E-score for ATCATCAA
Resp: 0.26

Req: Give recorded PBM E-score with Abf1 (UniProt P14164) for the following sequence: CGTCATAC
Resp: 0.316

Req: Please tell me: PBM E-score of GCAGGCAC , system Abf1 (UniProt P14164)?
Resp: -0.145

Req: # query: PBM E-score | item ATATATAC | system: Abf1 (UniProt P14164)
Resp: 0.262

Req: Record lookup: for Abf1 (UniProt P14164), what PBM E-score belongs to GAAGCTGA ?
Resp: -0.0959

Req: Given the entry ATGTTAAT , what PBM E-score was observed with Abf1 (UniProt P14164)?
Resp: -0.0223

Req: Field: PBM E-score (Abf1 (UniProt P14164)). Entry: CCTTCGTA
Resp: 0.292

Req: Please tell me: PBM E-score of CATCCTTC , system Abf1 (UniProt P14164)?
Resp: 0.0215

Req: For Abf1 (UniProt P14164), provide PBM E-score of ATGGAAAA please.
Resp: 0.177

Req: Abf1 (UniProt P14164) / PBM E-score / ATCATCGG : value?
Resp: 0.116

Req: Give recorded PBM E-score with Abf1 (UniProt P14164) for the following sequence: CTCACCAG
Resp: -0.101

Req: API: value(readout= PBM E-score, system= Abf1 (UniProt P14164), query= CACTGCAA )
Resp: 0.0215

Req: Item GCTTCGTA with Abf1 (UniProt P14164) - PBM E-score?
Resp: 0.313

Req: Enter reported PBM E-score observed with Abf1 (UniProt P14164) for GTTCTGTA
Resp: -0.0186

Req: Kindly state the measured PBM E-score obtained for ACTCGTTG with Abf1 (UniProt P14164).
Resp: -0.00197

Req: Hi! What's the reported PBM E-score for ATGACTGA on Abf1 (UniProt P14164)?
Resp: -0.0877

Req: So what PBM E-score did ACTTCGTG get with Abf1 (UniProt P14164)?
Resp: 0.0796

Req: Short answer please: PBM E-score, Abf1 (UniProt P14164), entry CACCACGA
Resp: 0.202

Req: Form field: PBM E-score recorded for ATCATCGC with Abf1 (UniProt P14164) (enter value)
Resp: 0.301
